target: HIV-1 protease (Human immunodeficiency virus type 1 group M subtype B, UniProt P04585); assay: biochemical; conditions: Table I; read-out: HIV Protease FITC Assay Ki
recorded-endpoint: pKi
pKi here is simply -log10 of the concentration when that concentration is written in mol/L.

// recorded pKi for O=c1oc2c(c(O)c1C(c1cccc(CS(=O)(=O)c3ccc(F)cc3)c1)C1CC1)CCCCCC2 (stereo not shown) : 8.67

// recorded pKi for CCC(CC1CCCOC1)c1cc(O)c(C(c2cccc(NS(=O)(=O)c3cccc4cccnc34)c2)C2CC2)c(=O)o1 (stereo not shown) [Example 145A] : 8.96

// recorded pKi for N#Cc1ccc(S(=O)(=O)Cc2cccc(C(c3c(O)c4c(oc3=O)CCCCCC4)C3CC3)c2)cc1 (stereo not shown) : 8.72

// recorded pKi for Cn1ccnc1S(=O)(=O)Nc1cccc(C(c2c(O)cc(C(CC3CC3)CC3CC3)oc2=O)C2CC2)c1 (stereo not shown) : 9.14

// recorded pKi for CC(C)CC(c1cccc(NS(=O)(=O)c2cn(C)cn2)c1)c1c(O)c2c(oc1=O)CCCCCC2 (single isomer, unassigned) [Example 8] : 9.46

// recorded pKi for CCCC1(CCc2ccc(F)cc2)CC(O)=C(C(CC)c2cccc(NS(=O)(=O)c3ccc(C#N)cn3)c2)C(=O)O1 (stereo not shown) : 8.80

// recorded pKi for CCCC1(CCc2ccccc2)CC(O)=C(C(c2cccc(NS(=O)(=O)c3ccc(C#N)cc3)c2)C2CC2)C(=O)O1 (stereo not shown) : 8.42

// recorded pKi for CCC(CCBr)c1cc(O)c(C(c2cccc(NS(=O)(=O)c3cn(C)cn3)c2)C2CC2)c(=O)o1 (stereo not shown) : 9.80

// recorded pKi for CCCC1(CCC)CC(O)=C(C(c2cccc(NS(=O)(=O)c3cn(C)cn3)c2)C(C)(C)C)C(=O)O1 (stereo not shown) : 9.06

// recorded pKi for O=c1oc(C(CC2CC2)CC2CC2)cc(O)c1C(c1cccc(NS(=O)(=O)c2ccccn2)c1)C1CC1 (stereo not shown) : 9.18

// recorded pKi for Cn1cnc(S(=O)(=O)Nc2cccc(C(C3=C(O)CC(CCC4CC4)(CCC4CC4)OC3=O)C(C)(C)C)c2)c1 (stereo not shown) : 8.43

// recorded pKi for CCC(Cc1ccccc1)c1cc(O)c(C(c2cccc(NS(=O)(=O)c3cn(C)cn3)c2)C2CC2)c(=O)o1 (stereo not shown) : 8.88

// recorded pKi for O=c1oc(C(CC2CC2)CC2CC2)cc(O)c1C(c1cccc(NS(=O)(=O)c2nc3ccccc3[nH]2)c1)C1CC1 (stereo not shown) : 9.18

* * *

What inhibition at 30 µM was measured for each of the following?
Biological target: HIV-1 protease (Human immunodeficiency virus type 1 group M subtype B, UniProt P04585)
Assay: biochemical
Conditions: Table I; Dose 30.000 μM; read-out: Protease % Inhib
Procedure: The HIV protease screening assay is based on fluorescently labeled substrate which can be resolved from nonlabeled cleavage product using special beads coated with streptavidin. […] The labeled cleavage product is separated from the unreacted substrate via filtration and is read on the Idexx screen machine. The data are analyzed by appropriate computer algorithms to ascertain percent inhibition values.
Where a name gives a salt, the structure may show the parent alone.
Entry rule: numbers only, all in %.

// recorded inhibition at 30 µM for CCCC1(CCC)CC(O)=C(C(CC)c2cccc(NS(=O)(=O)c3cn(C)cn3)c2)C(=O)O1 (stereo not drawn) [Example 44] : 80

// recorded inhibition at 30 µM for CCC(CCNC(=O)CCCCCCC(=O)N(C)CCS(=O)(=O)O)c1cc(O)c(C(c2cccc(NS(=O)(=O)c3cn(C)cn3)c2)C2CC2)c(=O)o1 (stereo not drawn) [Example 110, monosodium salt] : 101

// recorded inhibition at 30 µM for O=C(O)c1ccc(S(=O)(=O)Cc2cccc(C(c3c(O)c4c(oc3=O)CCCCCC4)C3CC3)c2)cc1 (stereo not drawn) : 106
